B1: ZMYND11 (parent)
chain: YCSIKCQQEHWHAEHKRTCRRKR

Variants of: B1
test description: protein stability index of a GFP-peptide fusion (GPS, HEK-293T) (PSI 1-6); higher = more stable;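 note: lentivirally expressed fusions sorted by FACS into six bins by GFP to DsRed ratio, PSI derived from sequencing read proportions per bin multiplied by bin number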
test parameters: c terminus: native
Dear colleague, classification is by protein stability index, with ranges listed here: lower range (below 2), middle range (2 to below 3), upper range (3 or more)

Before answering, review these 2 worked examples.
| mutation label | class label |
| --- | --- |
| S3K | middle range |
| C19I | middle range |

In: Lab note: which band did A13K land in?
Out: middle range

In: Into which category would you place W11C ?
Out: upper range

In: Bin? Q7H
Out: middle range
